Assay: qHTS for Inhibitors of Cell Surface uPA Generation: FP59 Counterscreen for Cherry-picked Compounds
Settings: FP59 anthrax toxin cytotoxicity counterscreen, cells; series mostly up to 115 µM
Inconclusive results are not listed. Active and inactive are the calls of the source. Calls follow the shape of the dose curve; as a rule, active = well fitted activation curve with a large enough effect; inconclusive = small, poorly fitted or top-dose-only effect; inactive = flat fitted curve, though single readings scatter.
Possible outcomes: true = active, false = inactive

>>> print(df.to_string())
                                    compound  label
 0  Cc1cccc(-c2nc(CS(=O)CC(=O)NCc3cccs3)c(C)o2)c1 (stereo unspecified)  false
 1        O=C(O)CNC(=S)N(Cc1ccccc1)Cc1cccnc1  false
 2        Cc1cccc(N2CCN(Cc3ccc(Br)o3)CC2)c1C  false
 3  COc1ccc(CCNC(=O)COC(=O)CNS(=O)(=O)c2ccc(SC)c([N+](=O)[O-])c2)cc1  false
 4  Cc1cc(OC(C)C(=O)NCc2ccccn2)c2c(C)cc(=O)oc2c1 (stereo unspecified)  false
 5        Cc1ccc(Cl)c(N/C=C/C(=O)c2ccccc2)c1  false
 6  O=C(Cc1ccccc1)Nc1ccc(NC(=O)c2ccccc2)c(Cl)c1  false
 7  Cc1c(C(=O)N2CCN(S(=O)(=O)c3cccs3)CC2)oc2ccc(F)cc12  false
 8  CCN(CC)S(=O)(=O)c1ccc(C(=O)Nc2nnc(COC)o2)cc1  false
 9       S=C(Nc1ccccc1Cl)N1CCCC(c2ccccc2)=N1   true
10  Cc1cc(=O)[nH]c2c(C)cc(S(=O)(=O)Nc3ccc(O)cc3)cc12  false

----------
Experiment: qHTS for Inhibitors of Cell Surface uPA Generation: FP59 Counterscreen for Cherry-picked Compounds
Conditions: FP59 anthrax toxin cytotoxicity counterscreen, cells; series mostly up to 115 µM
Inconclusive results are not listed. Activity calls are given as the source filed them. The call rests on the fitted dose curve; in most records, active means well fitted activation curve with a large enough effect; inconclusive means small, poorly fitted or top-dose-only effect; inactive means flat fitted curve, though single readings scatter.
Outcomes: active, inactive

>>> df
                                   compound     label
0             COc1ccc(C(=O)NCCCN2CCOCC2)cc1  inactive
1  COc1ccccc1N1CCN(C2CC(=O)N(c3ccccc3)C2=O)CC1 (stereo unspecified)  inactive
2    O=C(NNC(=O)c1ccc2ccccc2c1)Nc1ccc(F)cc1  inactive
3  CN(C)c1cccc(C(=O)N(C)C2CCCN(Cc3ccccc3F)C2)c1 (stereo unspecified)    active
4  Cc1ccc(-n2cccc2C(=O)NS(=O)(=O)c2ccc(C)cc2)cc1  inactive
5  CCc1ccc(OCC(=O)N(Cc2cccs2)C2CCS(=O)(=O)C2)cc1 (stereo unspecified)  inactive

----------
Assay: qHTS for Inhibitors of Cell Surface uPA Generation: FP59 Counterscreen for Cherry-picked Compounds
Details: FP59 anthrax toxin cytotoxicity counterscreen, cells; series mostly up to 115 µM
Inconclusive results are not listed. Activity calls are given as the source filed them. The call rests on the fitted dose curve; in most records, active means well fitted activation curve with a large enough effect; inconclusive means small, poorly fitted or top-dose-only effect; inactive means flat fitted curve, though single readings scatter.
metric.name: outcome

>>> df
                                    molecule  readout_value
 0   CCn1c(=O)cc(C(=O)OC)sc1=Nc1ccc(F)c(F)c1       inactive
 1              Nc1ccc(S(=O)(=O)c2ccccc2)nc1       inactive
 2  COc1ccc(/C=C/C(=O)Nc2ccccc2Cl)cc1S(=O)(=O)N1CCOCC1       inactive
 3             Cc1noc(C)c1COc1ccc(C(=O)O)cc1       inactive
 4  CCN(CC(=O)NCc1ccc(F)cc1)CC(=O)Nc1ccccc1-c1ccccc1       inactive
 5                        c1csc(CN2CCOCC2)c1       inactive
 6            Cc1ccn(CCC(=O)N2CCc3ccccc32)n1       inactive
 7  O=C(c1cc(COc2c(F)cccc2F)on1)N1CCc2ccccc2C1       inactive
 8  COC(C[C@H](O)[C@H](C)[C@@H](O)COCc1ccccc1)OC       inactive
 9  CC1CCCCN1C(=O)CSc1nc2ncccc2[nH]1 (configuration not stated)       inactive
10  COCCNC(=S)N(CCc1c(C)[nH]c2ccccc12)Cc1ccco1       inactive
11  Cc1ccc(N=C2SCCCN2C(=O)c2cccc(N3C(=O)CCC3=O)c2)cc1Cl       inactive

----------
Assay: qHTS for Inhibitors of Cell Surface uPA Generation: FP59 Counterscreen for Cherry-picked Compounds
Details: FP59 anthrax toxin cytotoxicity counterscreen, cells; series mostly up to 115 µM
Results filed as inconclusive are left out. Activity calls are given as the source filed them. The call rests on the fitted dose curve; in most records, active means well fitted activation curve with a large enough effect; inconclusive means small, poorly fitted or top-dose-only effect; inactive means flat fitted curve, though single readings scatter.

compound	outcome
COc1cc(N/C(N)=N/c2nc(C)cc(C)n2)cc(OC)c1	inactive
COC(=O)[C@]1(Cc2ccccc2)N[C@H](CN(C)C(=O)c2ccccc2)[C@@H]2C(=O)N(Cc3ccccc3)C(=O)[C@@H]21	inactive
CC(=O)c1ccc2c(c1)c1ccccc1n2CC(C)C	inactive
C[C@H]([C@H](O)c1ccccc1)N(C)C(=O)CN	inactive
CC(C)(O)C#Cc1ccc(C(=O)N2CCCC(CCC(=O)NCc3ccccc3F)C2)cc1 (stereo not given)	inactive
CCOC(=O)[C@H]1[C@H]2COc3ccc(Br)cc3[C@@H]2N2C(=O)c3c(C)cc(C)cc3NC(=O)[C@@]12C	inactive
COc1ccc(C(=O)NC(=S)Nc2ccc(NC(=O)c3ccco3)cc2)cc1[N+](=O)[O-]	inactive
O=C1CCCC/C1=C\Nc1ccc(S(=O)(=O)Nc2cnc3ccccc3n2)cc1	inactive
CN(c1ccccc1)S(=O)(=O)c1ccc(C(=O)Nc2nnc(C3CC3)o2)cc1	inactive
COc1ccccc1CN1CC(C(=O)NCc2cccc(C)n2)CCC1=O (stereo not given)	inactive
COCCNC(=O)C(c1c[nH]c2ccccc12)N(C(=O)c1snc(C(N)=O)c1N)c1cccc(OC)c1 (stereo not given)	inactive
COC(=O)C1=CN(Cc2ccc(F)cc2)C=C(C(=O)OC)C1c1ccc(O)c(OC)c1	inactive
CCOc1ccccc1CN1CCCC(CNS(=O)(=O)c2ccc(OC)cc2)C1 (stereo not given)	inactive
COc1cc2cc(CN(CCN3CCOCC3)C(=O)Nc3ccc(F)cc3)c(=O)[nH]c2cc1OC	inactive
Cc1ccc(S(=O)(=O)N2CCOCC2)cc1C(=O)OC1CCOC1=O (stereo not given)	inactive
COc1ccc2nc(SC(C)C(=O)NC3(C#N)CCCCC3)[nH]c2c1 (stereo not given)	inactive
COc1ccc(NC(=O)CCNS(=O)(=O)c2ccccc2F)cc1S(=O)(=O)N1CCOCC1	inactive
COC(/C=C/Nc1ccc(Cl)cc1)=C(C#N)C#N	inactive
C/C=C/C(=O)Nc1cccc(C2=NOC3(C2)C[C@@H](C(N)=O)N(C(=O)c2cc([N+](=O)[O-])cc([N+](=O)[O-])c2C)C3)c1 (stereo not given in full)	inactive
O=C1C[C@@H]2CCN3C(=O)CCC[C@@H]([C@H]23)[C@H]1Cc1ccccc1	inactive

----------
Experiment: qHTS for Inhibitors of Cell Surface uPA Generation: FP59 Counterscreen for Cherry-picked Compounds
Conditions: FP59 anthrax toxin cytotoxicity counterscreen, cells; series mostly up to 115 µM
Inconclusive results are not listed. Calls of active or inactive are those of the source. Calls come from the whole dose curve; as a rule, active = well fitted activation curve with a large enough effect; inconclusive = small, poorly fitted or top-dose-only effect; inactive = flat fitted curve, though single readings scatter.
metric.name: outcome

In [3]: df
Out[3]:
                                   compound  readout_value
0  COc1ccc(N(C(C)C(=O)NN=C2CCCC2)S(C)(=O)=O)cc1 (stereo not given)       inactive
1  COC(=O)c1ccc(N2CCN(c3ccccc3)CC2)c(NC(=O)C2CC2)c1       inactive
2  C[C@@]12C(=O)N(CC3CCCO3)CC(=O)N1[C@H]1c3cc(Cl)ccc3OC[C@@H]1[C@@H]2c1ccccc1 (stereo not given in full)       inactive
3  COc1ccc(CN2CCN(Cc3ccc(C(F)(F)F)cc3)CC2)cc1       inactive
4            C[n+]1c2cc(N)ccc2cc2ccc(N)cc21       inactive
5  CCC(=O)N(Cc1cc2ccc(C)cc2[nH]c1=O)c1ccccc1OC       inactive
6  CC(NC(=O)NC1CCCCC1)C(c1cccs1)N1CCN(C)CC1 (stereo not given)       inactive
7     Cc1ccc(C(=O)NNC(=O)CNc2cccc(Cl)c2)cc1       inactive
8  Cc1oc2c(Cl)c(Cl)c(O)c(CN(C)C)c2c1C(=O)c1ccc(Cl)cc1       inactive
9  Cc1cccc(/C=N/Nc2cc(N3CCOCC3)nc(N3CCOCC3)n2)c1       inactive

----------
Assay: qHTS for Inhibitors of Cell Surface uPA Generation: FP59 Counterscreen for Cherry-picked Compounds
Conditions: FP59 anthrax toxin cytotoxicity counterscreen, cells; series mostly up to 115 µM
Inconclusive results are not listed. Calls of active or inactive are those of the source. The call rests on the fitted dose curve; in most records, active means well fitted activation curve with a large enough effect; inconclusive means small, poorly fitted or top-dose-only effect; inactive means flat fitted curve, though single readings scatter.
Classes used: 1 (active), 0 (inactive)

>>> print(df.to_string())
                                    molecule  label
 0  CSc1ccccc1OCc1cc(C(=O)NCCCn2nc(C)cc2C)no1      0
 1  CCN(CC)CC(=O)Nc1sc2c(c1C(=O)c1ccccc1OC)CCC2      1
 2  CCn1c(CNc2ccc(F)cc2)nnc1SCC(=O)Nc1ccccc1OC      0
 3  C#CCOCCOCCOCCNc1nc(N2CCOCC2)nc(N2CCN(C(=O)[C@H](CCC(=O)O)n3cc([C@@H](N)CCCCN)nn3)CC2)n1      0
 4  Cc1c([N+](=O)[O-])c2ccc(O)cc2n1-c1ccccc1      0
 5          COC(=O)CCNS(=O)(=O)c1ccc2nsnc2c1      0
 6  CCOc1cc(S(=O)(=O)NC2CC(C)(C)NC(C)(C)C2)ccc1Cl      0
 7  CCOc1cc(C(=S)N2CCOCC2)ccc1OC(=O)c1cccc(C)c1      0
 8  CN1CC[C@]23c4ccccc4N[C@H]1[C@]21CCN(C)[C@H]3Nc2ccccc21      0
 9  COC(=O)[C@]1(Cc2ccccc2)N[C@H](CN(C)C(=O)Nc2ccccc2)[C@@H]2C(=O)N(Cc3ccccc3)C(=O)[C@@H]21      0
10                  Cc1ccc2cc(C=O)c(Cl)nc2c1      0
11  COc1ccc(-n2nc(C(=O)Nc3cc(OC)c(OC)c(OC)c3)c3ccccc3c2=O)c(OC)c1      0
12  Cc1ccc(-n2ncc(C(=O)NC3CC3)c2C2CCN(C(=O)OC(C)(C)C)CC2)cc1      0
13  CC(Sc1nnc2ccccn12)C(=O)NCc1ccc2c(c1)OCO2 (configuration not stated)      0
14  Cc1ccc(-c2nc(CS(=O)(=O)CC(=O)NCc3cccc(F)c3)c(C)o2)cc1      0
15     O=C(/C=C/c1cccc(Oc2ccccc2)c1)N1CCOCC1      0
16  C=CS(=O)(=O)c1ccc(Oc2ccc(S(=O)(=O)C=C)cc2)cc1      1
17  C=CCOC(=O)C1=C[C@@H](c2coc3ccccc3c2=O)C[C@@H](OCc2ccc(CO)cc2)O1      0
18  Fc1ccc(N2CCN(c3nc(CN4CCOCC4)nc4scc(-c5ccccc5)c34)CC2)cc1      0
19  O=C(NCCS(=O)(=O)N1CCC2(CC1)OCCO2)c1ccc(F)cc1      0
20               O=C(O)CCCC(=O)NCCCCc1ccccc1      0
21  CSc1nc(N)nc2c1ncn2CC(=O)NCC1CCCO1 (configuration not stated)      0
22  COC(=O)c1c(NC(=O)c2c(OC)cccc2OC)sc2c1C(C(=O)OC)CC2 (configuration not stated)      0
23  Cc1cccc(C(=O)NCC(=O)OCC(=O)NC2CCCCCCC2)c1      0
24  CC[C@]1(C(=O)OC)[C@H]2C(=O)N(C)C(=O)[C@H]2[C@H]2CN(C)C(=NC3CCCCC3)N21      0
25  COc1ccccc1NS(=O)(=O)c1cc(NC(=O)CCc2nc3ccccc3c(=O)[nH]2)ccc1C      0
26  CC1(C(=O)OCC(=O)Nc2ccc(Cl)cn2)CC1(Cl)Cl (configuration not stated)      0
27  CCCCNC(=O)C1CCN(S(=O)(=O)c2c(C)noc2/C=C\c2ccc(OC)cc2)CC1      0
28    COc1ccc(-n2nnnc2SCC(=O)Nc2nnc(C)s2)cc1      0
29           COc1ccc(/C(C)=N/N2CCOCC2)c(O)c1      0
30    CC(=O)c1ccc(OCCCCOc2ccc(C(C)=O)cc2)cc1      0
31              Cc1ccc(Nc2nc(Cl)c(C=O)s2)cc1      0
32  Cc1noc(C)c1COc1ccc(C(=O)N2CCN(S(=O)(=O)c3ccc(Cl)cc3)CC2)cc1      0
33  Cc1cc(C)cc(S(=O)(=O)c2cn(C)c3cc(N4CCN(C)CC4)c(F)cc3c2=O)c1      0
34    C[C@@H](CSc1ccccc1)CN1CC[C@H](O)CCC1=O      0
35  Cn1nc(C(C)(C)C)c([N+](=O)[O-])c1C(=O)N1CCOCC1      0
36  O=[N+]([O-])c1cccc(-c2noc(-c3cccs3)n2)c1      0
37  CCOC(=O)c1c(C)oc2ccc(OC(=O)COc3c(F)c(F)c(F)c(F)c3F)cc12      0
38  COc1ccc(CNC(=O)C2(CC3CC(c4ccccc4)=NO3)CCNCC2)cc1 (configuration not stated)      0
39              Cn1c(=O)c2c(ncn2CCO)n(C)c1=O      0
40  Cc1ccsc1/C=C(\C#N)C(=O)NC1CCS(=O)(=O)C1 (configuration not stated)      0
41  COc1cc(C2NC(=O)NC(C)=C2C(=O)OCC2CCCCC2)ccc1O (configuration not stated)      0
